// provenance: paper PMC7345095

Please go through the items and note down their IC50.
- Test system: HCT116 colon cancer cell line
- assay protocol: MTT viability assay
- Assay type: cell-based
- conditions used: MTT, 48 h of treatment
Don't forget the unit after the value.

Give a short answer stating reported IC50 for O=C(c1cc(Br)c([N+](=O)[O-])[nH]1)c1cc(Cl)cc(Cl)c1O [PM 5c] .
7.6 µM

Return the recorded IC50 value; entry: O=C(c1cc(Cl)cc(Cl)c1O)c1[nH]c(Cl)c(Cl)c1[N+](=O)[O-] [PM 5d]
1.6 µM

Entry O=C(c1cc(Cl)c([N+](=O)[O-])[nH]1)c1cc(Cl)cc(Cl)c1O [PM 5b] needs its IC50 filled in; supply it.
18.7 µM

Give the value of IC50 reported for the following: COc1c(Br)cc(Br)cc1C(=O)c1c(Br)c(Br)c(Br)n1C [PM 2]
11.1 µM

* * *

- Test system: HCT116 colon cancer cell line
- assay protocol: MTT viability assay
- Format: cell-based
- conditions used: Homo sapiens, HCT-116, 48 h, MTT, 48 h of treatment
outcome measure: IC50

Consider the compound O=C(c1cc(Br)c([N+](=O)[O-])[nH]1)c1cc(Cl)cc(Cl)c1O [PM 5c] . State its measured IC50.
7.64 µM

State, in one line, measured IC50 of O=C(c1cc([N+](=O)[O-])c[nH]1)c1cc(Cl)cc(Cl)c1O [PM 5a]
1.9 µM

Respond only with IC50 recorded for COc1c(Br)cc(Br)cc1C(=O)c1c(Br)c(Br)c(Br)n1C [PM 2]
11.1 µM

Quickly give me recorded IC50 for O=C(c1cc(Cl)c(Cl)[nH]1)c1cc(Cl)cc(Cl)c1O [PM-C, reference compound]
0.8 µM

Return IC50 for the following compound: O=C(c1cc(Br)cc(Br)c1O)c1[nH]c(Br)c(Br)c1Br [PM 1, reference compound]
1.3 µM

Return reported IC50. Input compound: O=C(c1cc(Cl)cc(Cl)c1O)c1[nH]c(Cl)c(Cl)c1[N+](=O)[O-] [PM 5d]
1.56 µM

Please give the documented IC50 of O=C(c1cc(Cl)c([N+](=O)[O-])[nH]1)c1cc(Cl)cc(Cl)c1O [PM 5b]
18.7 µM

* * *

- Tested on: HCT116 colon cancer cell line
- assay protocol: MTT viability assay
- Type: cell-based
- conditions used: ratio of IC50 of normal hTERT-RPE-1 to that of HCT116; first value of the cell
So I've got a bunch of molecules here, and I need their C-SI (Cancer Selectivity Index), HCT116 values.
Output: the number by itself.

For O=C(c1cc(Cl)cc(Cl)c1O)c1[nH]c(Cl)c(Cl)c1[N+](=O)[O-] , write its C-SI (Cancer Selectivity Index), HCT116.
143.3

Specify measured C-SI (Cancer Selectivity Index), HCT116 for O=C(c1cc(Cl)c(Cl)[nH]1)c1cc(Cl)cc(Cl)c1O [PM-C, reference compound] .
10.4

Supply reported C-SI (Cancer Selectivity Index), HCT116 belonging to this molecule: O=C(c1cc(Cl)c([N+](=O)[O-])[nH]1)c1cc(Cl)cc(Cl)c1O
3

Fill in reported C-SI (Cancer Selectivity Index), HCT116 for this entry: COc1c(Br)cc(Br)cc1C(=O)c1c(Br)c(Br)c(Br)n1C
13.4

Supply measured C-SI (Cancer Selectivity Index), HCT116 of O=C(c1cc([N+](=O)[O-])c[nH]1)c1cc(Cl)cc(Cl)c1O in your reply.
34.6

Please give measured C-SI (Cancer Selectivity Index), HCT116 of the following entry: O=C(c1cc(Br)cc(Br)c1O)c1[nH]c(Br)c(Br)c1Br [PM 1, reference compound]
44.2

* * *

- Tested on: HCT116 and MCF 7 cancer cell lines
- assay protocol: MTT viability assay, statements over both cancer cell lines
- Type: cell-based
- conditions used: MTT, 48 h challenge; group statement; read-out: IC50, regardless of the cancer cell line (HCT116, MCF 7)
pIC50: −log10 of the molar value.
Answer each item with its documented pIC50.

// fetch pIC50 given entry COc1c(Br)cc(Br)cc1C(=O)c1c(Br)c(Br)c(Br)n1C [PM 2]
< 5.15

Identify measured pIC50 associated with O=C(c1cc(Cl)c([N+](=O)[O-])[nH]1)c1cc(Cl)cc(Cl)c1O [PM 5b]
< 5.15

Report pIC50 for O=C(c1cc(Cl)cc(Cl)c1O)c1[nH]c(Cl)c(Cl)c1[N+](=O)[O-] [PM 5d]
5.65 to 6.10

Tell me measured pIC50 for O=C(c1cc(Br)c([N+](=O)[O-])[nH]1)c1cc(Cl)cc(Cl)c1O [PM 5c] please.
< 5.15

Complete the entry with pIC50 for O=C(c1cc(Br)cc(Br)c1O)c1[nH]c(Br)c(Br)c1Br [PM 1, reference compound]
5.65 to 6.10

Look up and state reported pIC50 for O=C(c1cc([N+](=O)[O-])c[nH]1)c1cc(Cl)cc(Cl)c1O [PM 5a]
5.65 to 6.10

Note pIC50 for the compound shown: O=C(c1cc(Cl)c(Cl)[nH]1)c1cc(Cl)cc(Cl)c1O [PM-C, reference compound]
5.65 to 6.10

* * *

Give pIC50 for every item shown.
- Tested on: MCF 7 breast cancer cell line
- assay protocol: MTT viability assay
- Type: cell-based
- conditions used: Homo sapiens, MCF7, 48 h, MTT, 48 h of treatment
- Method: The HCT116 colon cancer cell line (ATCC® CCL-247™), the MCF 7 breast cancer cell line (ATCC® HTB-22™) and the hTERT RPE-1 -immortalized retinal pigment epithelial cell line (ATCC® CRL-4000™) used in this study were cultured in DMEM medium (Gibco, Paisley, UK), supplemented with 1% glutamine, 10% heat-inactivated fetal bovine serum and 100U/mL penicillin and 100 μg/mL streptomycin, as already described, and maintained at 37 °C and 5% CO2. […]
The scale used: pIC50 is minus the common logarithm of the concentration in molar units.

// fetch pIC50; item: O=C(c1cc(Br)c([N+](=O)[O-])[nH]1)c1cc(Cl)cc(Cl)c1O ; system: MCF 7 breast cancer cell line
4.92

# lookup: MCF 7 breast cancer cell line pIC50, key = O=C(c1cc(Cl)c([N+](=O)[O-])[nH]1)c1cc(Cl)cc(Cl)c1O
4.54

Write down measured pIC50 (MCF 7 breast cancer cell line) for this molecule. O=C(c1cc([N+](=O)[O-])c[nH]1)c1cc(Cl)cc(Cl)c1O
5.65

State, for MCF 7 breast cancer cell line, measured pIC50 of the molecule listed here: O=C(c1cc(Cl)cc(Cl)c1O)c1[nH]c(Cl)c(Cl)c1[N+](=O)[O-]
5.80

Report value: pIC50, system: MCF 7 breast cancer cell line, molecule: COc1c(Br)cc(Br)cc1C(=O)c1c(Br)c(Br)c(Br)n1C
4.76

Provide pIC50, system MCF 7 breast cancer cell line, entry O=C(c1cc(Br)cc(Br)c1O)c1[nH]c(Br)c(Br)c1Br [PM 1, reference compound]
5.91

Report the value of pIC50 obtained on MCF 7 breast cancer cell line for O=C(c1cc(Cl)c(Cl)[nH]1)c1cc(Cl)cc(Cl)c1O [PM-C, reference compound] .
5.82
